SYSTEM_TESTED: pooled human IgG (human IgG1,2,3 and 4)
Each entry below lists one item and its recorded Enzyme Activity Endpoint Assay (purified): IgG value.
PARAMETER: Enzyme Activity Endpoint Assay (purified): IgG (ng/µL)

{"PROTEIN": "PRT-524 (protein) MITSVWTKGVTPPTDFRKIVDGNIAYYHAPYKAGQGWYDITKAFDGGDNLLCGAATAGNMLHWWFDQNKEEIEAYLKKHPEKQKIIFNNQELFDLKAVINTKDSQTNSALFNYFKDKAFPNLSARRLGVFPDLVLDMFINGYYLNVYKTQTTDVNRTYQTKDRRGGIFDAVFTRGVQSKLLTERHDLKNKTLKEISDLIKQELTEGKALGLSHTYANVRINHVINLWGADFDSNGNLEAIYVTDSDTNASIGMKKYFVGVNSAGKVAISAKEIKEDNIGAQVLGLFTLSTGQDIWNQTNLEHHHHHH", "ENDPOINT_VALUE": 676}
{"PROTEIN": "PRT-339 (protein) MTITSVWTKGVTPPTPEDFRENNEDVLHAPYLANQGWYDITKAFDGKDNLLCGAATAGNMLHWWFDQNKEEIERYLKKHPEKQKIIFGNQELFDVKAAIDTKDSQTNSKLFDYFRDKAFPNLSARQLGVMPDLVLDMFINGYYLNLGKTQSTDVNRPYQDKDKRGGIFDAVFTRGDQTTLLTARHDLKNKGLNEISDLIKQELTEGKALALSHTYANVSINHVINLWGADFDAEGNLEAIYVTDSDANASIGMKKYFVGRNAHGKVAISAKKIEGDNIGAQVLGLFTLSTGQDQWQKLS", "ENDPOINT_VALUE": 0}
{"PROTEIN": "PRT-296 (protein) MVTSVWTKGVTPPADFTQGEDVFHAPYVANQGWYDITKEFNGKDDLLCGAATAGNMLHWWFDQNKEYIEAYLKKHPEKQKIMFGDQELLDVRKAINTKGSQKNSELFNYFRDKAFPNLSARRLGVMPDLVLDMFINGYYLNVTKTQTTDVNRTYQEKDKRGGIFDAVFTRGDQSKLLTSRHDFKEKGLKEISDLIKQELTEGKALGLSHTYANVRIGHVINLWGADFDSDGNLKAIYVTDSDSNASIGMKKYGVGVNSAGKVAISAKEIKEDNIGAQVLGLFTLSTGQDIWNQTN", "ENDPOINT_VALUE": 0}
{"PROTEIN": "PRT-294 (protein) MVTSVWTKGVTPPADFTQGEDVFHAPYDANQGWYDITKTFNGKDDLLCGAATAGNMLHWWFDQNKEYIEAYLKKHPEKQKIMFGDQELLDVRKAINTKGSQKNSELFNYFRDKAFPNLSARRLGVMPDLVLDMFINGYYLNVTKTQTTDVNRTYQEKDKRGGIFDAVFTRGDQSKLLTSRHDFKEKGLKEISDLIKQELTEGKALGLSHTYANVRISHVINLWGADFDSDGNLKAIYVTDSDSNASIGMKKYGVGVNSAGKVAISAKEIKEDNIGAQVLGLFTLSTGQDIWNQTN", "ENDPOINT_VALUE": 506}
{"PROTEIN": "PRT-498 (protein) MVTSVWTKGVTPPTDFRKIVDGNIAYYHAPYKAGQGWYDITKAFDGGDDLLCGAATAGNMLHWWFDQNKEYIEAYLKKHPEKQKIMFGDQELLDVRKAINTKGSQKNSELFNYFRDKAFPNLSARRLGVMPDLVLDMFINGYYLNVTKTQTTDVNRTYQEKDKRGGIFDAVFTRGDQSKLLTSRHDLKNKGLKEISDLIKQELTEGKALGLSHTYANVRINHVINLWGADFDSDGNLKAIYVTDSDSNASIGMKKYFVGVNSAGKVAISAKEIKEDNIGAQVLGLFTLSTGQDIWNQTNLEHHHHHH", "ENDPOINT_VALUE": 325}
{"PROTEIN": "PRT-505 (protein) MVTSVWTKGVTPPTDFIKGEDVFHAPYKAGQGWYDITKAFDGGDDLLCGAATAGNMLHWWFDQNKEYIEAYLKKHPEKQKIMFGDQELLDVRKAINTKGSQKNSELFNYFRDKAFPNLSARRLGVMPDLVLDMFINGYYLNVTKTQTTDVNRQEQEKDKRGGIFDAVFGRGDQTKLLTSRHDLKNKGLKEISDLIKQELTEGKALGLSHTYANVRINHVINLWGADFDSDGNLKAIYVTDSDSNASIGMKKYFVGVNSAGKVAISAKEIKEDNIGAQVLGLFTLSTGQKIWNKTNLEHHHHHH", "ENDPOINT_VALUE": 609}
{"PROTEIN": "PRT-303 (protein) MVTSVWTKGVTPPTDFIKGEDVFHAPYDAGQGWYDITKTFNGKDDLLCGAATAGNMLHWWFDQNKEYIEAYLKKHPEKQKIMFGDQELLDVRKAINTKGSQKNSELFNYFRDKAFPNLSARRLGVMPDLVLDMFINGYYLNVTKTQTTDVNRTYQEKDKRGGIFDAVFTRGDQSKLLTSRHDFKEKGLKEISDLIKQELTEGKALGLSHTYANVRISHVINLWGADFDSDGNLKAIYVTDSDSNASIGMKKYGVGVNSAGKVAISAKEIKEDNIGAQVLGLFTLSTGQDIWNQTN", "ENDPOINT_VALUE": 0}
{"PROTEIN": "PRT-515 (protein) MITSVWTKGVTPPTDFIKGEDVFHAPYKAGQGWYDITKAFDGGDDLLCGAATAGNMLHWWFDQNKEEIEAYLKKHPEKQKIMFGDQELLDVRKVINTKDSQTNSALFNYFKDKAFPNLSARRLGVMPDLVLDMFINGYYLNVYKTQTTDVNRQEQTKDRRGGIFDAVFGRGDQTKLLTERHDLKNKTLNEISQLIKQELTEGKALGLSHTYANVRINHVINLWGADFDAEGNLEAIYVTDSDSNASIGMKKYFVGVNSAGKVAISAKEIKEDNIGAQVLGLFTLSTGQKIWNKTNLEHHHHHH", "ENDPOINT_VALUE": 0}
